# reported inhibition at 1 µM; entries follow
- test-system: wild-type human cardiac sodium channel, hNav1.5 (late sodium current) in HEK293 cells (Homo sapiens)
- Sequence (Q14524 whole entry): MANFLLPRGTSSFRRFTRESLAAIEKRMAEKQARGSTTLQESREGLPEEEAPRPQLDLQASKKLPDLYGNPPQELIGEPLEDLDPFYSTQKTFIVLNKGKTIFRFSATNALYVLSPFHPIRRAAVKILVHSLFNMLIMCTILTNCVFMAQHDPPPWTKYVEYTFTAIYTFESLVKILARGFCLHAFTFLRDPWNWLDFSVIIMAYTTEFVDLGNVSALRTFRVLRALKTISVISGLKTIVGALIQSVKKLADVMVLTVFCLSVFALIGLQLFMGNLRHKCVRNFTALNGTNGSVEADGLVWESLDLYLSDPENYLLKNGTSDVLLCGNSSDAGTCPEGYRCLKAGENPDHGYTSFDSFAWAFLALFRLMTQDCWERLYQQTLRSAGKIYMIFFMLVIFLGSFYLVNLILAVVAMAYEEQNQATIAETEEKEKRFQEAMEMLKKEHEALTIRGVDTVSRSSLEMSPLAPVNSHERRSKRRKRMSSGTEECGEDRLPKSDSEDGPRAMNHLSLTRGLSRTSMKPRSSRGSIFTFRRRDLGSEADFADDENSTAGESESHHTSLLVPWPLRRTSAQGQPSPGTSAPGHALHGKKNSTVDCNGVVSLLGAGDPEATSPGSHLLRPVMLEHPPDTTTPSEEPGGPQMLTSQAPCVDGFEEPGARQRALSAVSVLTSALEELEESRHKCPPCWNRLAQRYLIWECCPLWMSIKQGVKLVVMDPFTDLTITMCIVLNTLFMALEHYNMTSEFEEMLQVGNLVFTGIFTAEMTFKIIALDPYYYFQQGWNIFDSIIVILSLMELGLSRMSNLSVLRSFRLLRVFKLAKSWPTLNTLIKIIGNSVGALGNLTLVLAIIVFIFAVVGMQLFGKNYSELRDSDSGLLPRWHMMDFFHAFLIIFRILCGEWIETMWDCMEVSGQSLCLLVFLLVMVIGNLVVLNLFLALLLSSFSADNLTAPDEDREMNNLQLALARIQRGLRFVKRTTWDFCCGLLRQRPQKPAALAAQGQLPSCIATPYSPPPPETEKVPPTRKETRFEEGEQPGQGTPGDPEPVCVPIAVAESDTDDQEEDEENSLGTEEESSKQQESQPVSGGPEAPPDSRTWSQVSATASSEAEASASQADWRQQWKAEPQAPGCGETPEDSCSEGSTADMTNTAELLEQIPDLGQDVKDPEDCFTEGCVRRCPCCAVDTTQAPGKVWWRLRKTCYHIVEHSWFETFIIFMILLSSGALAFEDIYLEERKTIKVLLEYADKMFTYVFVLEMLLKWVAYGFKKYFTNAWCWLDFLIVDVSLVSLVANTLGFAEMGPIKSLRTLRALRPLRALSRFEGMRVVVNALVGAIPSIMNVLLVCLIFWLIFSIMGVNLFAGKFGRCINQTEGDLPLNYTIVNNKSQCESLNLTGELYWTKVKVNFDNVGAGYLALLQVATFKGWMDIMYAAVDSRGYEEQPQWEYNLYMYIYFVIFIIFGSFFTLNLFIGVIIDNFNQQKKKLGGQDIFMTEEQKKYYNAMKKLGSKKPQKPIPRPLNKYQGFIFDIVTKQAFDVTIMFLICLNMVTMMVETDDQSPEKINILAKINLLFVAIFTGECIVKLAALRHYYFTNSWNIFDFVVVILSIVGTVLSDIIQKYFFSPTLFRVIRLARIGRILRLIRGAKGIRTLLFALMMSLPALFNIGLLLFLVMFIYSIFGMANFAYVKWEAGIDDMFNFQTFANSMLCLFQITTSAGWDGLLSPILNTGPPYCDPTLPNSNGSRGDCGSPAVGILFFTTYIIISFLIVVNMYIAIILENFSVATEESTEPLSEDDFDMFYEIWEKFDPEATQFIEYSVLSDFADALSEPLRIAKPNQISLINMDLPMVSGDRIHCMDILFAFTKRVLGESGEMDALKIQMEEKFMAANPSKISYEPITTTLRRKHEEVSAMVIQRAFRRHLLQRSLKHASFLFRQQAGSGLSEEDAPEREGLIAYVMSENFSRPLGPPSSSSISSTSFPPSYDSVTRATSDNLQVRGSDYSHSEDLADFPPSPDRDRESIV
- run-description: Late INa screening assay (automated whole-cell patch clamp, PatchXpress)
- Assay type: cell-based
- condition-context: HEK293, compound at 1 μM; late INa generated with 10 μM Tefluthrin (or 50 nM ATX II); HEK293 hNav1.5; read-out: Late INa 1 μM (percent block of late INa)
- Method: The late sodium current (Late INa) and peak sodium current (Peak INa) assays are performed on an automated electrophysiology platform, PatchXpress 7000A (MDS Analytical Technologies, Sunnyvale, Calif.), which uses the whole cell patch clamp technique to measure currents through the cell membrane of up to 16 cells at a time. […]
Numbers only; they are read as %.

molecule="Cc1noc(Cn2nc3ccc(-c4ccc(Cl)c(Cl)c4)cn3c2=O)n1 [compound 134]" measured_attribute="inhibition at 1 µM" experimental_value=15.5
molecule="O=c1[nH]nc2ccc(-c3ccc(OC(F)(F)F)cc3)cn12 [compound 200]" measured_attribute="inhibition at 1 µM" experimental_value=26.5
molecule="COc1c(-c2ccc(OC(F)(F)F)cc2)ccc2nn(Cc3nc(C)no3)c(=O)n12 [compound 30]" measured_attribute="inhibition at 1 µM" experimental_value=18.2
molecule="Cn1cc(Cn2nc3ccc(-c4ccc(OC(F)(F)F)cc4)cn3c2=O)cn1 [compound 163]" measured_attribute="inhibition at 1 µM" experimental_value=12
molecule="CCOc1ccnc(OC2COCC2n2nc3ccc(-c4ccc(OC(F)(F)F)cc4)cn3c2=O)n1 (centres unmarked) [compound 125]" measured_attribute="inhibition at 1 µM" experimental_value=14.1

Item O=c1n(CCOc2ccc(F)cc2)nc2ccc(-c3ccc(OC(F)(F)F)cc3)cn12 [compound 55] : provide inhibition at 1 µM
24.3

Retrieve inhibition at 1 µM measured for O=c1n(CCOc2nccc(C3CC3)n2)nc2ccc(-c3ccc(OC(F)(F)F)cc3)cn12 [compound 90] and print it.
36.3

State its inhibition at 1 µM: O=c1n(Cc2ccccn2)nc2ccc(-c3ccc(OC(F)(F)F)cc3)cn12 [compound 16]
11.5
